- Tested on: SW-620 colon
- TEST METHOD NOTES: NCI tumour cell line growth inhibition, 48 h; in the data active = GI50 below about 0.43 µM; inactive = the rest
Outcome codes: t for active, f for inactive

[
  {
    "MOLECULE": "O=C(COc1ccc(/C=C2\\Oc3ccccc3C2=O)cc1)Nc1nc2ccccc2s1",
    "CATEGORY LABEL": "f"
  },
  {
    "MOLECULE": "CCc1ccc(Nc2cc(C)c3ccc(O)cc3n2)cc1",
    "CATEGORY LABEL": "f"
  },
  {
    "MOLECULE": "COc1ccc(-c2cc(/C=C/C(=O)c3ccc(N)cc3)[nH]n2)cc1OC",
    "CATEGORY LABEL": "f"
  },
  {
    "MOLECULE": "COc1ccc(C(O)c2cc3c(N)c(C(=O)Nc4cccc5ccccc45)sc3nc2C)cc1 (configuration not stated)",
    "CATEGORY LABEL": "t"
  },
  {
    "MOLECULE": "S=C1SCN(Cc2ccccc2)CN1Cc1ccco1",
    "CATEGORY LABEL": "f"
  },
  {
    "MOLECULE": "CCCCS(=O)c1sc2nc(-c3cccs3)cc(-c3ccccc3)c2c1N (configuration not stated)",
    "CATEGORY LABEL": "f"
  },
  {
    "MOLECULE": "Nc1nccc(-c2c(-c3ccc(F)cc3)nn3cc(C(F)(F)F)ccc23)n1",
    "CATEGORY LABEL": "f"
  },
  {
    "MOLECULE": "CSc1nc2nc(-c3ccccc3)c(C)c-2c2n1C(C)C(=O)N2 (configuration not stated)",
    "CATEGORY LABEL": "f"
  },
  {
    "MOLECULE": "CC(=O)NC1C(O[C@H]2C[C@H]3[C@@H]4CC=C5C[C@@H](O)CC[C@]5(C)[C@H]4CC[C@]3(C)[C@H]2[C@H](C)C(=O)CCC(C)C)OCC(O)C1O (some centres not stated)",
    "CATEGORY LABEL": "f"
  },
  {
    "MOLECULE": "Fc1ccc(NC(c2ccc(F)cc2)C2CCN(CCCCc3ccccc3)CC2)cc1 (configuration not stated)",
    "CATEGORY LABEL": "f"
  },
  {
    "MOLECULE": "COCCOC1=C(Cl)C(=O)c2ccccc2C1=O",
    "CATEGORY LABEL": "f"
  },
  {
    "MOLECULE": "Cc1cc(Cl)nc(N(CCNc2ccnc3cc(Cl)ccc23)Cc2ccco2)n1",
    "CATEGORY LABEL": "f"
  }
]

###

- Tested on: OVCAR-5 ovarian
- TEST METHOD NOTES: NCI tumour cell line growth inhibition, 48 h
READOUT TYPE: TGI

[
  {
    "MOLECULE": "COc1ccc(-c2nc3ccc(Cc4ccc5nc(-c6ccc(OC)cc6)[nH]c5c4)cc3[nH]2)cc1",
    "READOUT TYPE": "TGI",
    "OBSERVED VALUE": "2.85 µM"
  },
  {
    "MOLECULE": "COC(=O)/C=C(\\C(=O)OC)c1cc(C)c2cc(C(C)C)ccc(C)c1-2",
    "READOUT TYPE": "TGI",
    "OBSERVED VALUE": "> 100 µM"
  },
  {
    "MOLECULE": "Cn1c(CNc2ccc(-c3n[nH]c(=S)n3C)cc2)n[nH]c1=S",
    "READOUT TYPE": "TGI",
    "OBSERVED VALUE": "> 100 µM"
  },
  {
    "MOLECULE": "C1CSCCSCCCS[C@@H]2CCCCC2SC1 (stereo partly specified)",
    "READOUT TYPE": "TGI",
    "OBSERVED VALUE": "> 100 µM"
  },
  {
    "MOLECULE": "COC(=O)c1cc2c(cc1Cl)Sc1nnc(Nc3ccccc3)n1S2(=O)=O",
    "READOUT TYPE": "TGI",
    "OBSERVED VALUE": "21.4 µM"
  },
  {
    "MOLECULE": "C=CCON(C(=O)OC(C)(C)C)C(C)(C)C",
    "READOUT TYPE": "TGI",
    "OBSERVED VALUE": "> 100 µM"
  }
]

###

- Tested on: SN12C renal
- TEST METHOD NOTES: NCI tumour cell line growth inhibition, 48 h
READOUT TYPE: TGI

[
  {
    "COMPOUND": "COc1ccc2nc3cc(Cl)ccc3c(NC(C)CCCN(CCCl)CCCl)c2c1 (stereo unspecified)",
    "OBSERVED VALUE": "8.66 µM"
  },
  {
    "COMPOUND": "COC1(OC)c2occc2C(=N)c2ccc(=O)oc21",
    "OBSERVED VALUE": "> 100 µM"
  },
  {
    "COMPOUND": "O=C(c1ccc(Cl)cc1)N(C(=O)N1CCCCC1)c1ccccc1",
    "OBSERVED VALUE": "> 100 µM"
  },
  {
    "COMPOUND": "CC(=O)Nc1ccc(C2CC(c3ccc([N+](=O)[O-])cc3)=Nc3ccccc3S2=O)cc1 (stereo unspecified)",
    "OBSERVED VALUE": "72.2 µM"
  },
  {
    "COMPOUND": "COC12C(COC(=O)NCCO)C3=C(C(=O)C(C)=C(N)C3=O)N1CC1NC12 (stereo unspecified)",
    "OBSERVED VALUE": "> 264 µM"
  },
  {
    "COMPOUND": "CSc1nc2nc(-c3ccccc3)c(C)c-2c2n1C(C)C(=O)N2 (stereo unspecified)",
    "OBSERVED VALUE": "> 100 µM"
  }
]

###

- Tested on: OVCAR-3 ovarian
- TEST METHOD NOTES: NCI tumour cell line growth inhibition, 48 h

[
  {
    "COMPOUND": "COCCOC1=C(Cl)C(=O)c2ccccc2C1=O",
    "TGI": "3.06 µM"
  },
  {
    "COMPOUND": "NCCOc1cccc(C2(N3CCCCC3)CCCCC2)c1",
    "TGI": "> 100 µM"
  },
  {
    "COMPOUND": "O=C(NCCC1CNc2ccccc21)OCc1ccccc1 (stereo unspecified)",
    "TGI": "> 100 µM"
  },
  {
    "COMPOUND": "S=C1SCN(Cc2ccccc2)CN1Cc1ccco1",
    "TGI": "15 µM"
  },
  {
    "COMPOUND": "C=C(CN1CCc2[nH]c3ccc(F)cc3c2C1)c1ccc(C(=O)Nc2ccccc2N)cc1",
    "TGI": "6.84 µM"
  },
  {
    "COMPOUND": "O=C1CC(c2ccc(Cl)cc2)=Nc2ccccc2N1",
    "TGI": "> 100 µM"
  },
  {
    "COMPOUND": "c1cc(-c2ccc(-c3ccsc3)s2)cs1",
    "TGI": "> 100 µM"
  },
  {
    "COMPOUND": "Cc1cnc(C(=O)NNc2nc3sc4c(c3c(=O)[nH]2)C(C)CCC4)cn1 (stereo unspecified)",
    "TGI": "17.1 µM"
  },
  {
    "COMPOUND": "COc1ccc(/C(Nc2ccccc2)=C(\\CCl)c2ccccc2)cc1OC",
    "TGI": "> 100 µM"
  },
  {
    "COMPOUND": "O=C(CCCC(=O)Nc1ccc(Cl)cc1Cl)CC(=O)c1ccc2ccccc2c1",
    "TGI": "> 100 µM"
  },
  {
    "COMPOUND": "[B]C(=O)NC(CC(C)C)C(=O)NCC(=O)NC1c2ccsc2C(=O)C1O (stereo unspecified) (tested in a mixture with another compound)",
    "TGI": "> 100 µM"
  },
  {
    "COMPOUND": "CN(NC1=NCCO1)c1ccc2ccccc2c1",
    "TGI": "72.7 µM"
  },
  {
    "COMPOUND": "CC(=O)NC1C(O[C@H]2C[C@H]3[C@@H]4CC=C5C[C@@H](O)CC[C@]5(C)[C@H]4CC[C@]3(C)[C@H]2[C@H](C)C(=O)CCC(C)C)OCC(O)C1O (stereo partly specified)",
    "TGI": "34 µM"
  },
  {
    "COMPOUND": "CN1CCOC(C(NC(=O)c2ccccc2)c2ccccc2)C1=O (stereo unspecified)",
    "TGI": "> 100 µM"
  },
  {
    "COMPOUND": "O=C(O)CN(CCN(CC(=O)O)CC(=O)O)CC(=O)O.[Mn+2]",
    "TGI": "> 100 µM"
  },
  {
    "COMPOUND": "CCN(/C=C1/C(=O)C(c2ccccc2)N(c2ccccc2)C1=O)CC (stereo unspecified)",
    "TGI": "> 10 µM"
  }
]
